- System: K-562 leukemia
- measurement-description: NCI-60 one-dose screen, 48 h (100 = growth as untreated, 0 = no growth, -100 = all killed)
- particulars: 10 µM unless noted
About 83,000 compounds went through this panel and 20% of them were active in at least one assay; those are over-represented in the sample as a whole.
measured-property: growth (%)
One number for each entry, in %.

compound	measured-property	value-observed
CC1(C)O[C@H]2OC3CCC(=O)CC3(O)[C@H]2O1 (stereo not given in full)	growth	94.8

Need growth for each of these compounds.
1. O=C(Nc1ccccc1)c1sc(-c2ccccc2)cc1O
2. O=C(N/N=C/c1ccc(O)cc1O)c1ccc(Nc2ccnc(C(F)(F)F)c2)cc1
3. CC(C)CSc1oc(-c2ccccc2)nc1S(=O)(=O)c1ccccc1
4. CC/C=C\C/C=C/C=C1/C(=O)C=C[C@@H]1C/C=C\CCCC(=O)OC
5. COc1cc(N2C(=O)[C@H](c3ccccc3)C2c2ccc(SC)cc2)cc(OC)c1OC (stereo not given in full)
6. C/C(=C(/c1ccc(Cl)cc1)c1ccc(OCCCN(C)C)cc1)c1ccc(Cl)cc1
7. Cc1c(Cl)cccc1C(=O)Nc1nc2c(s1)CN(C(=O)Nc1cccc(C(F)(F)F)c1)CC2

Response line:
[82.6, 74.9, 92.4, 2.34, 5.06, 16.9, 11.2]

Need growth for each of these compounds.
1. Nc1c(C(=O)Nc2ccncc2)sc2nc3c(cc12)CCCCC3
2. CSCCC(NC(=O)c1ccccc1)C(=O)N/N=C1\S/C(=C/c2ccc(Cl)cc2)C(=O)N1C (stereo not given)

Response line:
[51.8, 41.6]
